method.description: in vitro
recorded.conditions: PAMPA
parameter: Papp (×10⁻⁶ cm/s)

COc1ccc(C(=O)N2CCOCC2)cc1S(=O)(=O)N(C)Cc1ccc(F)cc1	16.6
CCCCOc1ccc(C(=O)N2CCOCC2)cc1S(=O)(=O)NCc1ccccc1	27.4
COCCOCN1CNc2cc(OC)c(S(=O)(=O)N(Cc3ccccc3)Cc3ccccc3)cc2S1(=O)=O	0.92
COc1ccc(C(=O)NC2COC2)cc1S(=O)(=O)N(Cc1ccc(F)cc1)Cc1ccc(F)cc1	4.92
COCCOCN(Cc1ccccc1)S(=O)(=O)c1cc(OC)ccc1OC	12.8
COc1ccc(OC)c(S(=O)(=O)N(Cc2ccc(F)cc2)Cc2ccnn2C)c1	35.6
COc1ccc(C(=O)N2CCOCC2)cc1S(=O)(=O)N(Cc1ccc(F)cc1)Cc1ccc(C(F)(F)F)nc1	10
COCCN(Cc1ccccc1)S(=O)(=O)c1cc(C(=O)NC2COC2)ccc1OC	4.72
COCCN(Cc1ccccc1)S(=O)(=O)c1ccccc1OC(F)(F)F	5.26
COc1ccc(N2CCOCC2)cc1S(=O)(=O)N(Cc1ccc(F)cc1)Cc1ccc(F)cc1	2.55
COc1ccc(C(=O)N2CCOCC2)cc1S(=O)(=O)N(Cc1ccc(F)cc1)Cc1ccccc1Cl	9
COc1ccc(CN(Cc2ccc(F)cc2)S(=O)(=O)c2cc(F)ccc2OCC[N+](C)(C)CC(=O)O)cc1	0.36
CS(=O)(=O)c1ccccc1S(=O)(=O)N(Cc1ccccc1)Cc1ccccc1	6.25
COc1ccc(C(=O)N2CCN(C)CC2)cc1S(=O)(=O)N(Cc1ccc(F)cc1)Cc1ccc(F)cc1	3.23
COc1ccc(Cl)cc1S(=O)(=O)N(Cc1ccccc1)CC(O)c1ccc(F)cc1 (stereo not shown)	4
COc1ccc(C(=O)N2CCOCC2)cc1S(=O)(=O)N(Cc1ccc(F)cc1)CC(C)C	17.7
